# Test system: HIF-1 (HRE-dependent luciferase reporter)
# TEST_DESCRIPTION: HRE-luciferase assay, screening of HIF-1 inhibitors in HCT116 cells
# Assay type: cell-based, human
# CONDITION_SUMMARY: Homo sapiens, HCT-116; HCT116 cells stably expressing HRE-dependent luciferase reporter, hypoxic conditions, 12 hours; means of three experiments
# Procedure: HCT116 cells stably expressing the HRE-dependent luciferase reporter were treated with the disubstituted adamantyl derivative prepared in the above example under hypoxic conditions for 12 hours before measuring luciferase activity. In HCT116 cells treated with disubstituted adamantyl derivatives, luciferase activity was investigated using HRE-luciferase assay. […] Luciferase activity was measured using a Victor X light luminescence reader (PerkinElmer, Boston, MA, USA).
Assign pIC50 to each entry below.
Answers are plain numbers, as −log10 of the molar value.

COC(=O)c1cccc(NC(=O)COc2ccc(C34CC5CC(CC(C(=O)NCc6ccccc6)(C5)C3)C4)cc2)c1 [Compound 10g]
5.89
COC(=O)c1cccc(NC(=O)COc2ccc(C34CC5CC(CC(C(=O)OC)(C5)C3)C4)cc2)c1 [Compound 10a]
4.74
COC(=O)c1cccc(NC(=O)COc2ccc(C34CC5CC(CC(C(=O)NCc6ccco6)(C5)C3)C4)cc2)c1 [Compound 10h]
5.52
COc1cc2c(cc1OC)CN(C(=O)C13CC4CC(C1)CC(c1ccc(OCC(=O)N5CCN(Cc6ccc(C(F)(F)F)cc6)CC5)cc1)(C4)C3)CC2 [Compound 21c]
5.96
CNC(=O)C12CC3CC(C1)CC(c1ccc(OCC(=O)Nc4cccc(C(=O)OC)c4)cc1)(C3)C2 [Compound 10f]
4.78

Here is the next item to consider.
Entry COC(=O)c1cccc(NC(=O)COc2ccc(C34CC5CC(CC(C(=O)OCc6ccco6)(C5)C3)C4)cc2)c1 [Compound 10e] has what pIC50?
5.19

###

I'd appreciate it if you could supply IC50 values for the items below.
# System: HIF-1 (HRE-dependent luciferase reporter)
# TEST_DESCRIPTION: HRE-luciferase assay, screening of HIF-1 inhibitors in HCT116 cells
# Format: cell-based, human
# CONDITION_SUMMARY: Homo sapiens, HCT-116; HCT116 cells stably expressing HRE-dependent luciferase reporter, hypoxic conditions, 12 hours; means of three experiments
Give bare numbers, in µM.

COc1cc2c(cc1OC)CN(C(=O)C13CC4CC(C1)CC(c1ccc(OCC(=O)N5CCOCC5)cc1)(C4)C3)CC2 [Compound 21a]
5.43

Continue with the next compound.
Checklist item: IC50 tested on HIF-1 (HRE-dependent luciferase reporter), entry COc1ccc(CN2CCN(C(=O)C34CC5CC(C3)CC(c3ccc(OCC(=O)N6CCN(C)CC6)cc3)(C5)C4)CC2)cc1 [Compound 17c] , value?
9.53

###

Provide the reported IC50 of each item.
# Tested on: HIF-1 (HRE-dependent luciferase reporter)
# TEST_DESCRIPTION: HRE-luciferase assay, screening of HIF-1 inhibitors in HCT116 cells
# Assay type: cell-based, human
# CONDITION_SUMMARY: HCT116 cells stably expressing HRE-dependent luciferase reporter, hypoxic conditions, 12 hours; means of three experiments
# Procedure: HCT116 cells stably expressing the HRE-dependent luciferase reporter were treated with the disubstituted adamantyl derivative prepared in the above example under hypoxic conditions for 12 hours before measuring luciferase activity. In HCT116 cells treated with disubstituted adamantyl derivatives, luciferase activity was investigated using HRE-luciferase assay. […] Luciferase activity was measured using a Victor X light luminescence reader (PerkinElmer, Boston, MA, USA).
Answers are plain numbers, in µM.

COc1ccc(COC(=O)C23CC4CC(CC(C4)C2c2ccc(OCC(=O)N4CCN(C)CC4)cc2)C3)cc1OC (stereo not drawn) [Compound 14d]
1.67

Here are 2 compounds. What values of IC50 were reported for them?
1. COc1ccc(COC(=O)C23CC4CC(CC(C4)C2c2ccc(OCC(=O)NCc4ccco4)cc2)C3)cc1OC (stereo not drawn) [Compound 14c]
2. CN1CCN(C(=O)COc2ccc(C34CC5CC(CC(C(=O)N6CCN(Cc7ccc(C(F)(F)F)cc7)CC6)(C5)C3)C4)cc2)CC1 [Compound 17b]

1. 22.5
2. 2.19

###

# Tested on: HIF-1 (HRE-dependent luciferase reporter)
# TEST_DESCRIPTION: HRE-luciferase assay, screening of HIF-1 inhibitors in HCT116 cells
# Assay type: cell-based, human
# CONDITION_SUMMARY: Homo sapiens, HCT-116; HCT116 cells stably expressing HRE-dependent luciferase reporter, hypoxic conditions, 12 hours; means of three experiments
I'd be grateful if you could share measured pIC50 for these entries.
Numbers only, as −log10 of the molar value.

Here is how some molecules turned out for pIC50.
COC(=O)c1cccc(NC(=O)COc2ccc(C34CC5CC(C3)C(C(=O)OCc3ccc(OC)c(OC)c3)C(C5)C4)cc2)c1 (stereo not shown) [Compound 10c]
5.63
COc1cc2c(cc1OC)CN(C(=O)C13CC4CC(C1)CC(c1ccc(OCC(=O)N5CCN(C)CC5)cc1)(C4)C3)CC2 [Compound 21b]
5.02
COC(=O)c1cccc(NC(=O)COc2ccc(C34CC5CC(CC(C(=O)N6CCc7cc(OC)c(OC)cc7C6)(C5)C3)C4)cc2)c1 [Compound 10j]
5.89

In the following, a different molecule is considered.
GET /values?readout=pIC50&system=HIF-1 (HRE-dependent luciferase reporter)&item= COC(=O)c1cccc(NC(=O)COc2ccc(C34CC5CC(CC(C(=O)Nc6ccccn6)(C5)C3)C4)cc2)c1 [Compound 10i]
5.62

###

# System: HIF-1 (HRE-dependent luciferase reporter)
# TEST_DESCRIPTION: HRE-luciferase assay, screening of HIF-1 inhibitors in HCT116 cells
# Type: cell-based, human
# CONDITION_SUMMARY: HCT116 cells stably expressing HRE-dependent luciferase reporter, hypoxic conditions, 12 hours; means of three experiments
READOUT: IC50

CN1CCN(C(=O)COc2ccc(C34CC5CC(CC(C(=O)NCc6ccco6)(C5)C3)C4)cc2)CC1 [Compound 17a]
> 20 µM
COc1ccc(COC(=O)C23CC4CC(CC(C4)C2c2ccc(OCC(=O)Nc4cccc(C(F)(F)F)c4)cc2)C3)cc1OC (stereo not drawn) [Compound 14a]
> 20 µM

# ---- query compound ----
Which IC50 is reported for this compound? COc1ccc(COC(=O)C23CC4CC(CC(C4)C2c2ccc(OCC(=O)Nc4cccc5cccnc45)cc2)C3)cc1OC (stereo not drawn) [Compound 14b]
> 20 µM
